- measuredTarget: T1, Macaca fascicularis PDGFRb.mmh (Macaca fascicularis)
- T1 construct: Soluble monomeric construct; also called mfPDGFRb.mmh
- T1 chain: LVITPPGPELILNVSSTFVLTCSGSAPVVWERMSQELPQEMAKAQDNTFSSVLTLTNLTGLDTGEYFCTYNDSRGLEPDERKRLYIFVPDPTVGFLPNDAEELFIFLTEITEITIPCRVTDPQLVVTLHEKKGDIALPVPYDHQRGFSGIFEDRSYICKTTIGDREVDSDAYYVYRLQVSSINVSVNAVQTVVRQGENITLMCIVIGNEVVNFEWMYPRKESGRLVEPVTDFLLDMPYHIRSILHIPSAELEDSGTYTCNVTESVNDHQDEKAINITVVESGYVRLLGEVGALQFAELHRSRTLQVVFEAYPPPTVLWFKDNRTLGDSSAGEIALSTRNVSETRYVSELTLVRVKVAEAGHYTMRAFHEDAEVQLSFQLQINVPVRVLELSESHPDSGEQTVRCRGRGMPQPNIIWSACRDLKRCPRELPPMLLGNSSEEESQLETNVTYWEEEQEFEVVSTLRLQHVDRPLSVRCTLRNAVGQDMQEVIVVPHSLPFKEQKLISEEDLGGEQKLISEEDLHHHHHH
- assayOverview: SPR, mAb captured, 37 C
# if measured koff < 0.004 s⁻¹: criterion met  # else: criterion not met

For orientation, consider the following solved cases.
binder	answerLabel
H4H3104S (antibody, human IgG4, V domains shown, human IgG4 Fc (H4H prefix)) VH: QVQLVESGGGLVQPGGSLRLSCAAAGFTFSHYWMSWVRQAPGKGLEWVATIKKDGSERYYVDSVKGRFTISRDNARNSMYLEMNSLRTEDTAIYYCARDIVTPNTDYYFGMDVWGQGTTVTVSS VL: DIQLTQSPSTLSASVGDRVTITCRASQSFNNWLSWYQQKPGKAPKLLIYMASTLESGVPSRFSGSGSGTDFTLTINSLQPDDFATYYCQQSNSYSRTFGHGTKVEIK	criterion met
H4H3105S (antibody, human IgG4, V domains shown, human IgG4 Fc (H4H prefix)) VH: QVQLVESGGSLVQPGGSLRLACTASGFTFSSYWMSWVRQAPGKGLEWVANIQQDENEKYYVDSVKGRFSISRDNAKKSLYLQMNSLRVEDTAVYFCARDLVPPRQGDYYHYFGMDVWGQGTTVTVSS VL: DIQLTQSPSTLSASVGDRVTITCRASQSISDWLAWYQQKPGKAPNLLIYKASTLESGVPSRFSGSGSGTEFTLTISSLQPDDFATYYCQQYNSYSRTFGQGTKVEIK	criterion not met
H4H3102S (antibody, human IgG4, V domains shown, human IgG4 Fc (H4H prefix)) VH: EVQLVESGGDLVHPGRSLRLSCVASGFTFDDYTMHWVRQAPGKGLEWVSAISWNGDNINYAGSVKGRFTISRDNAKNSLYLEMNSLRVEDTAFYYCAKGRGFSFGFNYLGQGTMVTVSS VL: AIRMTQSPSSLSASVGDRVTITCRASQDISNYLAWFQQQPGKAPKSLIYATSSLNSGVPSKFSGSGSGTDFTLTISSLQPEDFATYYCQQYKSYPLTFGGGTKVEIK	criterion met
H4H3374N (antibody, human IgG4, V domains shown, human IgG4 Fc (H4H prefix)) VH: QLQLQESGPGLVKPSETLSLTCTVSGGSITSSSYYWGWIRQPPGKGLEWIGSIYYRGSTNYNPSLKSRVTISVDSSKNQFYLKVSSVTAVDTAVYYCARQNGAARPSWFDPWGQGTLVTVSS VL: EIVLTQSPDTISLSPGERATLSCRASQSISSIYLAWYQQKPGQAPRLLIYGASSRVTGIPDRFSVSGSGTDFTLTISRLEPEDFAVYYCQHYGISPFTFGPGTKVDIR	criterion met
H4H3096S (antibody, human IgG4, V domains shown, human IgG4 Fc (H4H prefix)) VH: EVQLVQSGGSLVQPGGSLRLSCTASGFTFSSYWMSWVRQAPGKGLEWVANIQQDESEKYYVDSVKGRFSISRDNAKKSLYLQMNSLRAEDTAVYFCARDLVPPRQGDYYHYFGMDVWGQGTLVTVSS VL: AIRMTQSPSTLSASVGDRVTITCRASQSISDWLAWYQQKPGKAPNLLIYKASSLESGVPSRFSGSGSGTEFTLTISGLQPDDFATYYCQQYNSYSRTFGQGTKLEIKR	criterion not met
H4H3098S (antibody, human IgG4, V domains shown, human IgG4 Fc (H4H prefix)) VH: EVQLVESGGGVVQPGRSLRLSCAASGFTFSNYGMHWVRQAPGKGLEWVTVIWYDGSYKYYADSVKGRFTISRDNSKNRLYLQMNSLRAEDTAVYYCARGELGDAFDIWGQGTMVTVSS VL: DIQMTQSPSTLSASVGDRLTITCRASQSISTWLAWYQQKPGKAPTLLIYKASSLESGVPSRFSGSGSGTDFTLTISSLQPDDFATYYCQQYKTSWTFGQGTKLEIKR	criterion not met

Q: Input H4H3106S (antibody, human IgG4, V domains shown, human IgG4 Fc (H4H prefix)) VH: QVQLVESGGGLVQPGGSLRLSCAASGFTFSSYWMSWVRQVPGKGLEWVANMNQDGTEKYYVDSVKGRLTISRENVKNSLYLQMNGLRAEDTAVYYCARDLVPPRQGDYYYYFGMDVWGHGTMVTVSS VL: AIQMTQSPSTLSASVGDIVTITCRASQSISDWLAWYQQKPGKAPKLLIFKASSLESGVPSRFSGSGSGTDFTLTISSLQPDDFATYYCQQYNSYSRTFGQGTKVDIK ; condition: koff strictly below 0.004 s⁻¹. Does it hold?
Result: criterion met

Q: Input H4H3094P (antibody, human IgG4, V domains shown, also called H4H3394P) VH: EVQLVESGGGLVQPGGSLRLSCAASGFTFSSYWMSWVRQAPGKGLEWVANMNQDGSETHYVDSVKGRLSISRDNAKKSLFLHMNSLRAEDTAVYFCARDLVPPRQDDYYYYFGMDVWGHGTTVTVSS VL: DIQMTQSPSTLSASVGDRVTITCRASQSISDWLAWYQQKPGKAPKLLIFKASTLESGVPSRFSGSGSGTEFTLTISSLQPDDFATYYCQQYNSYSRTFGQGTKVEIK ; condition: koff strictly below 0.004 s⁻¹. Does it hold?
Result: criterion met

Q: Input H4H3095S (antibody, human IgG4, V domains shown, human IgG4 Fc (H4H prefix)) VH: EVQLVESGGGLVQPGGSLRLSCGASGFTFSSYWMTWVRQAPGKGLEWVGNINQDGSEKYSVDSVKGRFTISRDNAKNSLYLQMNRVRAEDTAVYYCSRDLVPPRQGDNYYYFGMDVWGLGTTVTVSS VL: DIQMTQSPSTLSASVGDRVIITCRASQNINNWLAWYQQQPGKAPKLLIYEASSLESGVPSRFSGSGSGTEFTLTIGSLQPDDFATYYCQHYNSYSRTFGQGTKVDIK ; condition: koff strictly below 0.004 s⁻¹. Does it hold?
Result: criterion not met

Q: Input H4H3103S (antibody, human IgG4, V domains shown, human IgG4 Fc (H4H prefix)) VH: EVQLLQSGGGLVQPGGSLRLSCAASGFTFSHYWMSWVRQGPGKGLEWVATIKKDGSESYYVDSVRGRFTISRDNAKNSLYLQMNSLRTEDTAVYYCARDIVTPNVGYYFGMDVWGQGTTVTVSS VL: DIQMTQSPSTLSASVGDRVTITCRASQSISSWLSWYQQKPGKAPKLLIYMASTLESGVPSRFSGSGSGTDFTLTITSLQPDDFATYYCQQSNSYSRTFGHGTKLEIK ; condition: koff strictly below 0.004 s⁻¹. Does it hold?
Result: criterion not met
